# Tested on: ECU
# experiment.summary: qHTS profiling for inhibitors of Plasmodium falciparum proliferation (AID 504749); also: nearly all actives have a fitted effect of over 60% in size
# experimental.setup: P. falciparum in erythrocytes, SYBR Green DNA, 72 h; series mostly up to 28.7 µM
Records with an inconclusive call do not appear. Calls of active or inactive are those of the source. Calls follow the shape of the dose curve; as a rule, active = well fitted inhibition curve with a large enough effect; inconclusive = small, poorly fitted or top-dose-only effect; inactive = flat fitted curve, though single readings scatter.
Classes used: active, inactive

[[record]]
compound = "CCN(C)C(=O)Oc1cccc([C@H](C)N(C)C)c1"
system_tested = "ECU"
group_label = "inactive"

[[record]]
compound = "Cc1cccc(Nc2ccncc2S(=O)(=O)NC(=O)NC(C)C)c1"
system_tested = "ECU"
group_label = "inactive"

[[record]]
compound = "Nc1nc(N)nc(-c2cc(Cl)ccc2Cl)n1"
system_tested = "ECU"
group_label = "inactive"

[[record]]
compound = "CCCN[C@H]1CCc2nc(N)sc2C1"
system_tested = "ECU"
group_label = "inactive"

[[record]]
compound = "COc1cnc(NS(=O)(=O)c2ccc(N)cc2)nc1"
system_tested = "ECU"
group_label = "inactive"

[[record]]
compound = "COc1cc([C@@H]2c3cc4c(cc3[C@H](O)[C@H]3COC(=O)[C@H]23)OCO4)cc(OC)c1OC"
system_tested = "ECU"
group_label = "active"

[[record]]
compound = "COc1cccc(N(C)C(=S)Oc2ccc3c(c2)CCCC3)n1"
system_tested = "ECU"
group_label = "inactive"

[[record]]
compound = "NC(=O)c1cccnc1"
system_tested = "ECU"
group_label = "inactive"

[[record]]
compound = "COc1cc(NCc2ccc3nc(N)nc(N)c3c2C)cc(OC)c1OC"
system_tested = "ECU"
group_label = "active"

[[record]]
compound = "O=C(O)c1cc(=O)[nH]c(=O)[nH]1"
system_tested = "ECU"
group_label = "inactive"

[[record]]
compound = "OC(Cn1cncn1)(Cn1cncn1)c1ccc(F)cc1F"
system_tested = "ECU"
group_label = "inactive"

[[record]]
compound = "C1CCC(C(CC2CCCCN2)C2CCCCC2)CC1 (stereo not drawn)"
system_tested = "ECU"
group_label = "active"

[[record]]
compound = "Nc1ccc(S(=O)(=O)Nc2ccccn2)cc1"
system_tested = "ECU"
group_label = "inactive"


----------
# experiment.summary: Drug repurposing screens with cells derived from glioblastoma tumor samples (AID 1345199); also: potency is read from the fitted curve at half-maximal effect; nearly all actives have a fitted effect of over 40% in size
# experimental.setup: GBM patient neurospheres viability, ATP luminescence, 48 h; tumour line A
Results filed as inconclusive are left out. The source made the active and inactive calls. Calls come from the whole dose curve; as a rule, active = well fitted inhibition curve with a large enough effect; inconclusive = small, poorly fitted or top-dose-only effect; inactive = flat fitted curve, though single readings scatter.
property.label: Potency

[[record]]
compound = "CC1=CC(=O)c2ccccc2C1=O"
property_label = "Potency"
assay_value = "35.5 µM (active)"

[[record]]
compound = "CCCCOc1ccc(CC(=O)NO)cc1"
property_label = "Potency"
assay_value = "11.2 µM (active)"

[[record]]
compound = "CCN(C)C(=O)Oc1cccc([C@H](C)N(C)C)c1"
property_label = "Potency"
assay_value = "20 µM (active)"

[[record]]
compound = "CCN(CC)CC#CCOC(=O)C(O)(c1ccccc1)C1CCCCC1 (stereo not given)"
property_label = "Potency"
assay_value = "10 µM (active)"

[[record]]
compound = "CC(C)OC(=O)C(C(=O)OC(C)C)=C1SC=CS1"
property_label = "Potency"
assay_value = "11.2 µM (active)"

[[record]]
compound = "Oc1c(Cl)cc(Cl)c2cccnc12"
property_label = "Potency"
assay_value = "15.8 µM (active)"

[[record]]
compound = "CCc1c2c(nc3ccc(OC(=O)N4CCC(N5CCCCC5)CC4)cc13)-c1cc3c(c(=O)n1C2)COC(=O)[C@]3(O)CC"
property_label = "Potency"
assay_value = "1 µM (active)"

[[record]]
compound = "CCN(CC)CCn1c(=O)c(Cc2ccc(OC)cc2)nc2ccccc21"
property_label = "Potency"
assay_value = "10 µM (active)"

[[record]]
compound = "COC(=O)Nc1nc2ccc(C(=O)c3ccccc3)cc2[nH]1"
property_label = "Potency"
assay_value = "0.158 µM (active)"

[[record]]
compound = "COc1cccc(N(C)C(=S)Oc2ccc3c(c2)CCCC3)n1"
property_label = "Potency"
assay_value = "12.6 µM (active)"


----------
# experiment.summary: qHTS of pediatric cancer cell lines to identify multiple opportunities for drug repurposing: Primary screen for LAN-5 cells (AID 1347100)
# experimental.setup: LAN-5 neuroblastoma viability, CellTiter-Glo luminescence, 48 h; series mostly up to 46 µM
Records with an inconclusive call do not appear. Active and inactive are the calls of the source. The call rests on the fitted dose curve; in most records, active means well fitted cell-killing curve with a large enough effect; inconclusive means small, poorly fitted or top-dose-only effect; inactive means no such curve, though single readings can be large or run the other way.
Outcomes: y = active, n = inactive

[[record]]
compound = "NC1(c2ccc(-c3nc4ccn5c(=O)[nH]nc5c4cc3-c3ccccc3)cc2)CCC1"
group_label = "y"

[[record]]
compound = "CN(CCOc1ccc(CC2SC(=O)NC2=O)cc1)c1ccccn1 (stereo not drawn)"
group_label = "n"

[[record]]
compound = "O=C(O)CSCC(=O)NC1CCSC1=O (stereo not drawn)"
group_label = "n"

[[record]]
compound = "C[C@@H]1C[C@H]2[C@@H]3CCC4=CC(=O)C=C[C@]4(C)[C@@]3(Cl)[C@@H](O)C[C@]2(C)[C@@]1(OC(=O)c1ccco1)C(=O)CCl"
group_label = "y"

[[record]]
compound = "COc1cccc(N(C)C(=S)Oc2ccc3c(c2)CCCC3)n1"
group_label = "n"

[[record]]
compound = "Cc1cc(NS(=O)(=O)c2ccc(N)cc2)no1"
group_label = "n"

[[record]]
compound = "Nc1nc(=S)c2[nH]cnc2[nH]1"
group_label = "y"

[[record]]
compound = "CCn1cc(C(=O)O)c(=O)c2cc(F)c(N3CCN(C)CC3)cc21"
group_label = "n"

[[record]]
compound = "O=C(O)c1cccnc1"
group_label = "n"

[[record]]
compound = "OCc1ccc(-c2nn(Cc3ccccc3)c3ccccc23)o1"
group_label = "n"

[[record]]
compound = "CCN(C)C(=O)Oc1cccc([C@H](C)N(C)C)c1"
group_label = "n"

[[record]]
compound = "Cc1oc(=O)oc1CN1CCN(c2cc3c(cc2F)c(=O)c(C(=O)O)c2n3C(C)S2)CC1 (stereo not drawn)"
group_label = "n"

[[record]]
compound = "O=c1cc(O)c(Cl)c[nH]1"
group_label = "n"

[[record]]
compound = "CCn1cc(C(=O)O)c(=O)c2cc(F)c(N3CCNCC3)cc21"
group_label = "n"

[[record]]
compound = "Cc1cccc(N(C)C(=S)Oc2ccc3ccccc3c2)c1"
group_label = "n"

[[record]]
compound = "CN1CCN(c2c(F)cc3c(=O)c(C(=O)O)cn4c3c2OCN4C)CC1"
group_label = "n"

[[record]]
compound = "COc1c(N2CCNC(C)C2)c(F)cc2c(=O)c(C(=O)O)cn(C3CC3)c12 (stereo not drawn)"
group_label = "n"

[[record]]
compound = "COc1ccc2c(c1)c(CC(=O)OCC(=O)O)c(C)n2C(=O)c1ccc(Cl)cc1"
group_label = "n"

[[record]]
compound = "C[C@@H](CN1CC(=O)NC(=O)C1)N1CC(=O)NC(=O)C1"
group_label = "y"

[[record]]
compound = "CC1=NN(c2ccccc2)C(=O)C1"
group_label = "n"

[[record]]
compound = "CC(C)C1CCC(C(=O)N[C@H](Cc2ccccc2)C(=O)O)CC1 (stereo partly drawn)"
group_label = "n"

[[record]]
compound = "C[C@]12C=CC(=O)C=C1CC[C@@H]1[C@@H]2C(=O)C[C@@]2(C)[C@H]1CC[C@]2(O)C(=O)CO"
group_label = "n"

[[record]]
compound = "CCN[C@H]1C[C@H](C)S(=O)(=O)c2sc(S(N)(=O)=O)cc21"
group_label = "n"


----------
# experiment.summary: Quantitative High-Throughput drug screen in 47 multiple myeloma cell lines against the NCATS MIPE library collection: KMS28BM_JCRB cell viability assay (AID 1919874); also: nearly all actives have a fitted effect of over 35% in size
# experimental.setup: CellTiter-Glo ATP, 48 h; series mostly up to 45.8 µM
Inconclusive results are not listed. Calls of active or inactive are those of the source. Calls come from the whole dose curve; as a rule, active = well fitted cell-killing curve with a large enough effect; inconclusive = small, poorly fitted or top-dose-only effect, or effect the other way; inactive = no such curve, though single readings can be large or run the other way.
Labels: active, inactive

[[record]]
compound = "CC(C)NCC(O)c1ccc(NS(C)(=O)=O)cc1 (stereo unspecified)"
group_label = "inactive"

[[record]]
compound = "CC1=C(C(=O)O)N2C(=O)[C@@H](NC(=O)C(N)c3ccccc3)[C@H]2SC1 (stereo partly specified)"
group_label = "inactive"

[[record]]
compound = "CO[C@@H]1[C@@H](OC(N)=O)[C@@H](O)[C@H](Oc2ccc3c(O)c(NC(=O)c4ccc(O)c(CC=C(C)C)c4)c(=O)oc3c2C)OC1(C)C"
group_label = "active"

[[record]]
compound = "O=C(O)CSCC(=O)NC1CCSC1=O (stereo unspecified)"
group_label = "inactive"

[[record]]
compound = "CCN1CCCC1CNC(=O)c1cc(S(N)(=O)=O)ccc1OC (stereo unspecified)"
group_label = "inactive"

[[record]]
compound = "C1CCC(C(CC2CCCCN2)C2CCCCC2)CC1 (stereo unspecified)"
group_label = "active"


meta.source: PubChem BioAssay (NCATS)
